# measured_on: PKC epsilon (Homo sapiens)
# Sequence (Q02156 whole entry): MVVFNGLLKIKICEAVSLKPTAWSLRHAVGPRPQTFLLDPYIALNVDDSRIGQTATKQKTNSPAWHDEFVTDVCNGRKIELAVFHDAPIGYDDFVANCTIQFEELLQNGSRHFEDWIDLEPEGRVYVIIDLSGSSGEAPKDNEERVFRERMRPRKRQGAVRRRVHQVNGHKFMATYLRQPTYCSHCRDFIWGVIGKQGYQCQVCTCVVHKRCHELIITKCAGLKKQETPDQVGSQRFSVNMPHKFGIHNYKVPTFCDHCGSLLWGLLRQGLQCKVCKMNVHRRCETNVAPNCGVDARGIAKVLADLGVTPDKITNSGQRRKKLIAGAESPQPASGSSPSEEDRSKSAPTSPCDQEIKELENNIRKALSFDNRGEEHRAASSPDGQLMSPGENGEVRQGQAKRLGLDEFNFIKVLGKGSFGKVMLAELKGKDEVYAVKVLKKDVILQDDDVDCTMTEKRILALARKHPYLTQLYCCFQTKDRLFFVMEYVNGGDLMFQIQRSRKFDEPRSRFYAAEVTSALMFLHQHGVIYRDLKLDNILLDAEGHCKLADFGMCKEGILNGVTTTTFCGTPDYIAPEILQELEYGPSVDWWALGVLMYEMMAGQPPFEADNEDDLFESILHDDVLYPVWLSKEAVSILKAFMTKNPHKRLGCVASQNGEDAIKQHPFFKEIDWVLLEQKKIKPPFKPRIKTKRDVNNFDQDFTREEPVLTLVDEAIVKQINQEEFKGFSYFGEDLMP
experimental_readout: IC50 (nM)

Check out these entries, answers already filled in.
CN1C(C)(C)CC(Nc2nc(Nc3ccc4ncccc4c3)ncc2F)CC1(C)C ... 144
CN1C(C)(C)CC(Nc2nc(Nc3ccc(Cl)c(C#N)c3)ncc2Cl)CC1(C)C ... 311
Cc1ccc(Nc2ncc(Cl)c(NC3CC(C)(C)N(C)C(C)(C)C3)n2)cc1C#N ... 32.7

P = CN1C(C)(C)CC(Nc2nc(Nc3ccc(-c4cccnc4)c(C(F)(F)F)c3)ncc2F)CC1(C)C
Q = CN1C(C)(C)CC(Nc2nc(Nc3cccc(-c4ccoc4)c3)ncc2F)CC1(C)C
R = CCOc1ccc(Nc2ncc(F)c(NC3CC(C)(C)NC(C)(C)C3)n2)cc1-n1nnnc1CC
S = CN1C(=O)C(C)(C)Oc2cc(Nc3ncc(F)c(NC4CC(C)(C)N(C)C(C)(C)C4)n3)ccc21
T = CC1(C)CC(Nc2nc(Nc3ccc4c(c3)OCC(=O)N4CCF)ncc2C#N)CC(C)(C)N1
Task field, ranking: reported IC50, descending order. // list labels; follow requested order
T, Q, S, P, R

1 = CCN1C(=O)C(F)(F)Oc2cc(Nc3ncc(F)c(NC4CC(C)(C)N(C)C(C)(C)C4)n3)cnc21
2 = CN1C(C)(C)CC(Nc2nc(Nc3ccc(F)c(C#N)c3)ncc2Cl)CC1(C)C
3 = Cc1ccc(Nc2ncc(C#N)c(NC3CC(C)(C)N(C)C(C)(C)C3)n2)cc1-n1cnnn1
Sort by IC50, descending. Reply format: the labels, ordered as requested.
2, 1, 3

1 = CCN1C(=O)C(C)(C)Oc2cc(Nc3ncc(Br)c(NC4CC(C)(C)N(C)C(C)(C)C4)n3)ccc21
2 = CN1C(C)(C)CC(Nc2nc(Nc3ccc(OC(F)F)c(OC(F)F)c3)ncc2F)CC1(C)C
3 = CC1(C)CC(Nc2nc(Nc3cccc(-c4nn[nH]n4)c3)ncc2F)CC(C)(C)N1
Ordering criterion: IC50; begin with the maximum. Give the labels in the order specified.
3, 1, 2
(3: 982 nM, 1: 202 nM, 2: 40.7 nM)

* * *

# System: Human primary T cells
# method_summary: IL-2 ELISA, Human Primary T Cell, Anti-CD3+CD28+ (Example 3)
# Assay type: cell-based
# stated_conditions: Homo sapiens, T-cell, 24 h, anti-CD3+CD28 stimulation
experimental_readout: IC50 (nM)

CN1C(C)(C)CC(Nc2nc(Nc3ccc4ncccc4c3)ncc2F)CC1(C)C [II-1] ... 612
CCN(CC)C1CCC(Nc2nc(Nc3ccc(OC)c(Cl)c3)ncc2F)CC1 (centres unmarked) [IV-5] ... 4610
COC(=O)CCN1C(C)(C)CC(Nc2nc(Nc3ccc4c(c3)OCCO4)ncc2F)CC1(C)C [II-10] ... 7240
COc1ccc(Nc2ncc(C#N)c(NC3CC(C)(C)N(C)C(C)(C)C3)n2)cc1OC(F)F [Compound I-366] ... 122
CN1C(C)(C)CC(Nc2nc(Nc3ccc(-c4cccnc4)c(C#N)c3)ncc2F)CC1(C)C [Compound I-186] ... 92.4
CN1C(C)(C)CC(Nc2nc(Nc3nc4cc(Cl)ccc4o3)ncc2F)CC1(C)C [II-12] ... 4110

I = CN1CCN(C(=O)C2COc3cc(Nc4ncc(F)c(NC5CC(C)(C)N(C)C(C)(C)C5)n4)ccc3O2)CC1 (centres unmarked) [II-158]
II = CN1C(C)(C)CC(Nc2nc(Nc3ccc4c(c3)OCc3nccn3-4)ncc2F)CC1(C)C [II-11]
Among I and II , which shows a numerically higher IC50 result? State the label of the item chosen.
I
(I: 7200 nM, II: 1320 nM)

* * *

# Tested on: Human primary T cells
# method_summary: IL-2 ELISA, Human Primary T Cell, Anti-CD3+CD28+ (Example 3)
# Assay type: cell-based
# stated_conditions: Homo sapiens, T-cell, 24 h, anti-CD3+CD28 stimulation
pIC50: −log10 of the molar value.
experimental_readout: pIC50

Previously resolved entries follow.
CCN(CC)c1ccc(-c2csc(Nc3ncc(F)c(NC4CC(C)(C)N(C)C(C)(C)C4)n3)n2)cc1 ... 5.44
CN1CCN(c2ccc(Nc3ncc(F)c(N(Cc4ccccc4)C4CC(C)(C)N(C)C(C)(C)C4)n3)cc2C(F)(F)F)CC1 ... 6.09
CN1C(C)(C)CC(Nc2nc(Nc3nc4ccc([N+](=O)[O-])cc4s3)ncc2F)CC1(C)C ... 6.07
CN1C(C)(C)CC(Nc2nc(Nc3ccc(-c4ccncc4)c(F)c3)ncc2F)CC1(C)C ... 6.54
Cc1ccc(Nc2ncc(F)c(N(Cc3ccc(-c4ccccc4)cc3)C3CC(C)(C)N(C)C(C)(C)C3)n2)cc1C#N ... 5.60

I = CN1C(C)(C)CC(Nc2nc(Nc3cc(-c4ccoc4)cc(C(F)(F)F)c3)ncc2F)CC1(C)C
II = CN1C(C)(C)CC(Nc2nc(Nc3ccc(NCc4ccccc4)cn3)ncc2F)CC1(C)C
Just curious, which one has the larger pIC50 reading, I or II ? Which one? Tell me its label.
I

* * *

# Tested on: Human primary T cells
# method_summary: IL-2 ELISA, Human Primary T Cell, Anti-CD3+CD28+ (Example 3)
# Format: cell-based
# stated_conditions: Homo sapiens, T-cell, 24 h, anti-CD3+CD28 stimulation
pIC50: −log10 of the molar value.
experimental_readout: pIC50

CN1C(C)(C)CC(Nc2nc(Nc3ccc4c(c3)oc(=O)n4CCN3CCOCC3)ncc2F)CC1(C)C ... 5.66

1 = CSc1nnnn1-c1cccc(Nc2ncc(C(N)=O)c(NC3CC(C)(C)N(C)C(C)(C)C3)n2)c1
2 = Cc1ccc(C)n1-c1cc(Nc2ncc(F)c(NC3CC(C)(C)NC(C)(C)C3)n2)ccc1OCCN1CCOCC1
3 = COc1cc(Nc2nc(C)cc(NC3CC(C)(C)N(C)C(C)(C)C3)n2)cc(OC)c1
Place the items in sequence of falling pIC50. Use the labels to give the ranking in the order requested.
1, 2, 3

* * *

# Tested on: Human primary T cells
# method_summary: IL-2 ELISA, Human Primary T Cell, Anti-CD3+CD28+ (Example 3)
# Format: cell-based
# stated_conditions: Homo sapiens, T-cell, 24 h, anti-CD3+CD28 stimulation
pIC50: −log10 of the molar value.
experimental_readout: pIC50

a = CSc1nnnn1-c1cccc(Nc2ncc(F)c(NC3CC(C)(C)NC(C)(C)C3)n2)c1
b = CN1C(C)(C)CC(N(Cc2ccc(-c3ccccc3C#N)cc2)c2nc(Nc3ccc4c(c3)OCCO4)ncc2F)CC1(C)C
c = COc1ccc(-c2csc(Nc3ncc(F)c(NC4CC(C)(C)N(C)C(C)(C)C4)n3)n2)cc1F
d = CN1C(C)(C)CC(Nc2nc(Nc3ccc(C#N)c(Cl)c3)ncc2F)CC1(C)C
Order these by pIC50, descending, and give the full ranking. Lab note: final answer is the ordered label list.
a, d, c, b

* * *

# Test system: Human primary T cells
# method_summary: IL-2 ELISA, Human Primary T Cell, Anti-CD3+CD28+ (Example 3)
# Format: cell-based
# stated_conditions: Homo sapiens, T-cell, 24 h, anti-CD3+CD28 stimulation
experimental_readout: IC50 (nM)

Reference set, count: 3
CN1C(C)(C)CC(N(Cc2ccccc2)c2nc(Nc3ccc(N4CCN(S(C)(=O)=O)CC4)c(C(F)(F)F)c3)ncc2F)CC1(C)C ... 1410
CN1C(C)(C)CC(Nc2nc(Nc3ccc(N4CCOCC4)c(OC(F)F)c3)ncc2F)CC1(C)C ... 156
CN1C(C)(C)CC(Nc2nc(Nc3ccc4c(c3)OC(C)(C)C(=O)N4CCCF)ncc2C#N)CC1(C)C ... 567

I = CN1C(C)(C)CC(Nc2nc(Nc3ccc(-c4cnn(C)c4)c(Cl)c3)ncc2F)CC1(C)C
II = COc1cc(Nc2ncc(F)c(NC3CC(C)(C)N(CCC(=O)O)C(C)(C)C3)n2)cc(OC)c1
III = CN1C(C)(C)CC(Nc2nc(Nc3ccc4c(c3)OC(C)(C)O4)ncc2F)CC1(C)C
Ascending by IC50, please: list the compounds accordingly. Response field: labels, in requested order.
I, III, II

* * *

# Tested on: Human primary T cells
# method_summary: IL-2 ELISA, Human Primary T Cell, Anti-CD3+CD28+ (Example 3)
# Format: cell-based
# stated_conditions: Homo sapiens, T-cell, 24 h, anti-CD3+CD28 stimulation
experimental_readout: IC50 (nM)

A = CN1C(C)(C)CC(Nc2nc(Nc3cc(-c4cnn(C)c4)cc(C(F)(F)F)c3)ncc2F)CC1(C)C
B = Cc1ccc(Nc2ncc(F)c(NC3CC(C)(C)N(C)C(C)(C)C3)n2)cc1S(N)(=O)=O
Would you mind telling me which has the lower recorded IC50 between A and B ? Provide the label of your selected option as the answer.
A
(A: 440 nM, B: 1570 nM)

1 = CC(=O)N1C(C)CN(c2cc(Nc3ncc(F)c(NC4CC(C)(C)N(C)C(C)(C)C4)n3)ccc2Cl)CC1C (stereo not shown)
2 = CN1C(C)(C)CC(Nc2nc(Nc3ccc(N4CCN(S(C)(=O)=O)CC4)c(Cl)c3)ncc2C#N)CC1(C)C
Sorting by IC50 in descending order, would 1 or 2 appear first? Write down the label of the entry you select.
1
